Documented Enzyme Activity Endpoint Assay (purified): IgG across a set of proteins
- assayedTarget: pooled human IgG (human IgG1, 2, 3 and 4)
observable: Enzyme Activity Endpoint Assay (purified): IgG (ng/µL)

protein: PRT-696 (protein) MTITSVWTKGVTPPTPEDFRYNNEDVLHAPYVPNQGWYDITKTFDGGDNLLCGAATAGNMLHWWFDQNKEEIERYLKKYPEKQKIIFNNQELFDVRAAINSKDSQTNSKLFNYFRDKAFPNLSARQLGVMPDLVLDMFINGYYLNLGKTQSTDVNRPYQDPDKRGGIFDDVFKEGDQTTLLTARHDLKNGGLNEISDLIKQELQSGKALALSHTYANVRINHVINLWGADFDAEGNLIAIYVTDSDANQSIGMKKYKVGVNANGKVAISAKKIEGDNIGAQVLGLFTLSTGQEIWQKLSLEHHHHHH
unitName: ng/µL
dataValue: 1020

protein: PRT-384 (protein) MVTSVWTKGVTPPTNFTYGEDVLHAPYVANQGWYDITKTFNGKDDLLCGAATAGNMLHWWFDQNKEQIENYLKKHPEKQKINFNGEQMFDVKEAIDTKDSQLDSKLFEYFKEKAFPNLSTKHLGVFPDHVIDMFINGYRLSLTNHGPTPVKRGSKDPRGGIFDAVFTRGDQSKLLTNRHDFKEKTLKEISDLIKQELTEGKALGISHTYANVRINHVINLWGADFDAEGNLEAIYVTDSDSNASIGMKKYFVGVNSNGKVAISAKEIEEDNIGAQVLGLFTLSTGQDIWNQTN
unitName: ng/µL
dataValue: 1510

protein: PRT-646 (protein) MQITSVWTKGVTPLTPEQFRYNNEDVIHAPYLAHQGWYDITKAFDGKDNLLCGAATAGNMLHWWFDQNKTEIEAYLSKHPEKQKIIFNNQELFDLKAAIDTKDSQTNSQLFNYFRDKAFPNLSARQLGVMPDLVLDMFINGYYLNVFKTQSTDVNRPYQDKDKRGGIFDAVFTRGDQTTLLTETTDLYGKGLNDISTIIKQELTEGRALALSHTYANVSISHVINLWGADFNAEGNLEAIYVTDSDANASIGMKKYFVGINAHGHVAISAKKIEGENIGAQVLGLFTLSSGKDIWQKLSLEHHHHHH
unitName: ng/µL
dataValue: 39

protein: PRT-686 (protein) MQITSVWTKGVTPLTPEQFTYNNEDVIHAPYIANQGWYDITKTFNGKDNLLCGAATAGNMLHWWFDQNKTEIENYLKKHPEKQKIIFNNQELFDLRKAINTKDSQTNSALFNYFRDKAFPNLSARQLGVMPDLVLDMFINGYYLNVFKTQSTDVNRPYQTKDKRGGIFDHVFTRGDQSTLLTARHDLKNKTLNEISDIIKQELTEGKALALSHTYANVSISHVINLWGADFNAEGNLEAIYVTDSDANASIGMKKYFVGVNSHGKVAISAKKIEDENIGAQVLGLFTLSSGQDIWEQLSLEHHHHHH
unitName: ng/µL
dataValue: 0
